- PROTOCOL_NOTES: KARI assay of purified S. exigua KARI and variants with NADPH (Examples 6-9)
- Format: biochemical
- CONDITION_INFO: cofactor NADPH
Entries and their measured U/mg NADPH (specific activity) follow.
Supply the numeric figure in U/mg, leaving out any unit text.

Dear colleague, I am looking for the recorded U/mg NADPH (specific activity) of the following molecule: Se1_KARI^14B7: S. exigua KARI variant Y35H, S63D, I95V (protein, UniProt D0WGK0 1-342, looked up, variant Y35H S63D I95V) Ketol-acid reductoisomerase …: MSVKTKEKEMAVTILYEQDVDPKVIQGLKVGIIGHGSQGHAHALNLMDSGVDVRVGLREGSSDWKTAEEAGLKVTDMDTAAEEADVIMVLVPDEVQPKVYQEHIAAHLKAGNTLAFAHGFNIHYGYIVPPEDVNVIMCAPKGPGHIVRRQFTEGSGVPDLACVQQDATGNAWDIVLSYCWGVGGARSGIIKATFAEETEEDLFGEQAVLCGGLVELVKAGFETLTEAGYPPELAYFECYHEMKMIVDLMYESGIHFMNYSISNTAEYGEYYAGPKVINEQSREAMKEILKRIQDGSFAQEFVDDCNNGHKRLLEQREAINTHPIETTGAQIRSMFSWIKKED
0.56

Next:
Dear colleague, I am looking for the recorded U/mg NADPH (specific activity) of the following molecule: Se1_KARI^LE1-his6: S. exigua KARI variant I95V (protein, UniProt D0WGK0 1-342, looked up, variant I95V, His6 tag, S. exigua KARI variant I95V) Ketol-acid reductoisomerase …: MSVKTKEKEMAVTILYEQDVDPKVIQGLKVGIIGYGSQGHAHALNLMDSGVDVRVGLREGSSSWKTAEEAGLKVTDMDTAAEEADVIMVLVPDEVQPKVYQEHIAAHLKAGNTLAFAHGFNIHYGYIVPPEDVNVIMCAPKGPGHIVRRQFTEGSGVPDLACVQQDATGNAWDIVLSYCWGVGGARSGIIKATFAEETEEDLFGEQAVLCGGLVELVKAGFETLTEAGYPPELAYFECYHEMKMIVDLMYESGIHFMNYSISNTAEYGEYYAGPKVINEQSREAMKEILKRIQDGSFAQEFVDDCNNGHKRLLEQREAINTHPIETTGAQIRSMFSWIKKED
0.4
